# assay_details: drug combination growth inhibition, ovarian cancer – cell-based, oncology-focused library, rucaparib conditional, profiling panel (AID 1508598)
# measurement_parameters: patient-derived ovarian cancer cells, CellTiter-Glo viability, 144 h; at 0.0781 µM; OCI-P5x cells; with rucaparib 20 µM; active compounds read low; 100% = cells with rucaparib alone
Please go through the items and note down their viability.
Report the value in % with no unit label.

[ask] Output measured viability for this item: C[C@@]12CC[C@H]3c4ccc(O)cc4C[C@@H](CCCCCCCCCS(=O)CCCC(F)(F)C(F)(F)F)[C@H]3[C@@H]1CC[C@@H]2O (stereo not given in full)
[reply] 119

[ask] Please give the documented viability of C=CS(=O)(=O)NC1CCN(C(=O)CNc2cc(I)c(Cl)cc2OC)CC1
[reply] 107

[ask] // fetch viability given entry C[C@@H]1C[C@H]2[C@@H]3CCC4=CC(=O)C=C[C@]4(C)[C@]3(F)[C@H](O)C[C@]2(C)[C@]1(O)C(=O)CO
[reply] 100

[ask] State its viability: CC(=O)O[C@]12CO[C@@H]1C[C@H](O)[C@]1(C)C(=O)[C@H](O)C3=C(C)[C@H](OC(=O)[C@H](O)[C@@H](NC(=O)OC(C)(C)C)c4ccccc4)C[C@](O)([C@H](OC(=O)c4ccccc4)C21)C3(C)C (stereo not given in full)
[reply] 61.2

[ask] Tell us which viability value is on record for Cc1cc(C)c(-c2csc(NC(=O)c3ccccc3)n2)c(C)c1
[reply] 105

[ask] Return value of viability for input CCCCCOC(=O)Nc1nc(=O)n([C@@H]2O[C@H](C)[C@@H](O)C2O)cc1F (stereo not given in full) , no commentary.
[reply] 121

[ask] Return viability for the following compound: CO[C@H]1C[C@H]2CC[C@@H](C)[C@@](O)(O2)C(=O)C(=O)N2CCCC[C@H]2C(=O)O[C@H]([C@H](C)C[C@@H]2CC[C@H](OC(=O)C(C)(CO)CO)[C@H](OC)C2)CC(=O)[C@H](C)/C=C(\C)[C@@H](O)[C@@H](OC)C(=O)[C@H](C)C[C@H](C)/C=C/C=C/C=C/1C
[reply] 70.8

[ask] Answer with the recorded viability of CC(C)C[C@H](NP(=O)(O)O[C@@H]1O[C@@H](C)[C@H](O)[C@@H](O)[C@H]1O)C(=O)N[C@@H](Cc1c[nH]c2ccccc12)C(=O)O only.
[reply] 99.3

[ask] For the compound CO[C@H]1C[C@H]2CC[C@@H](C)[C@@](O)(O2)C(=O)C(=O)N2CCCC[C@H]2C(=O)O[C@H]([C@H](C)C[C@@H]2CC[C@H](OP(C)(C)=O)[C@H](OC)C2)CC(=O)[C@H](C)/C=C(\C)[C@@H](O)[C@@H](OC)C(=O)[C@H](C)C[C@H](C)/C=C/C=C/C=C/1C , give its measured viability value.
[reply] 76.7

[ask] Recall and state the measured viability for COc1cccc(-c2cc(F)ccc2[C@H]2Cc3nc(N)nc(C)c3C(=O)N2)n1 .
[reply] 10.3

Every entry's value here was drawn from PubChem BioAssay.
